Record form. Attribute: Mouse Smad7 mRNA expression (% inhibition), Liver. Fill in for each entry.
Tested on: mouse Smad7 mRNA
Test: Murine Smad7 mRNA expression after subcutaneous administration in BALB/c mice (Example 10)
Type: in vivo
Conditions Used: 50 mg/kg subcutaneous once a week for 4 weeks, 24 hours after last dose, liver
Strand notation (5' to 3'): a small letter for the sugar, then the base; units joined by * are phosphorothioate-linked, units joined directly phosphodiester-linked; [ ] holds rarer units or linkages, { } end groups; capitals alone tell only the bases. k = constrained ethyl (cEt); [5mC] = 5-methylcytosine; d = 2'-deoxy (DNA)
Could you give me the number in % inhibition? Just the number is fine.

Exercise: Can you share its Mouse Smad7 mRNA expression (% inhibition), Liver? I mean this substance: ION 790615: 3-10-3 (S)-cEt gapmer targeting human SMAD7; top lead compound (k[5mC]*k[5mC]*kA*dA*dT*dG*dA*dG*dA*dA*dT*dG*d[5mC]*kT*kT*k[5mC])
Solution: 47

Exercise: ION 736697: uniform deoxy phosphorothioate oligonucleotide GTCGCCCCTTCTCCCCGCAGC (SEQ ID NO: 2736), same sequence and chemistry as GED-0301 (Mongersen) (DNA, all phosphorothioate, methylation of C not given here) [reference compound] ?
Solution: 6

Exercise: ION 830025 (antisense TTTGTAAATCGAAAGC; 3-10-3 cEt gapmer, phosphorothioate, further chemistry not given here) [sodium salt] ?
Solution: 46

Exercise: ION 798781 (CGTAAGATTCACAGCA; 3-10-3 cEt gapmer, further chemistry not given here) ?
Solution: 36
